Provenance of the data: ChEMBL document CHEMBL1141286

Assignment: determine reported LC50 for the given compounds.
test system: SNB-19; assay: Growth inhibition of human SNB19 cells; assay type: functional

Observe how each entry below is paired with its result.
CCCc1cc(=O)c2c(OC)c3c(OC)cc(OC)cc3cc2o1    > 100 µM
COc1cc(O)cc2cc3oc(C)cc(=O)c3c(OC)c12 [COMANTHERIN]    > 100 µM

Kindly review the next compound as well.
Qu. Entry COc1cc(O)cc2cc3oc(C)cc(=O)c3c(O)c12 : reported LC50 = ?
Ans. > 100 µM

---

system: 786-0; assay: Growth inhibition of human 786-0 cells; type: functional; conditions: read-out: Log TGI (converted)
readout label: TGI

Some compounds with recorded TGI:
COc1cc(O)cc2cc3oc(C)cc(=O)c3c(OC)c12    > 100 µM
CCCc1cc(=O)c2c(O)c3c(OC)cc(O)cc3cc2o1    > 100 µM

Qu. What is its TGI for 786-0? Entry: CCCc1cc(=O)c2c(OC)c3c(OC)cc(OC)cc3cc2o1
Ans. > 100 µM

---

test system: SN12C; assay: Growth inhibition of human SN12C cells; format: functional; conditions: read-out: Log TGI (converted)
readout label: TGI

COc1cc(O)cc2cc3oc(C)cc(=O)c3c(O)c12    > 100 µM

Dear colleague, could you please provide TGI for the compounds listed below?
1. CCCc1cc(=O)c2c(OC)c3c(OC)cc(OC)cc3cc2o1
2. COc1cc(O)cc2cc3oc(C)cc(=O)c3c(OC)c12

Ans.
1. > 100 µM
2. > 100 µM

---

tested on: PC-3; experiment: Growth inhibition of human PC3 cells; type: functional; details: read-out: Log TGI (converted)
readout label: TGI

Worked cases, TGI given:
COc1cc(O)cc2cc3oc(C)cc(=O)c3c(OC)c12    > 100 µM
COc1cc(O)cc2cc3oc(C)cc(=O)c3c(O)c12    > 100 µM

--- query ---
Qu. Entry under review: CCCc1cc(=O)c2c(OC)c3c(OC)cc(OC)cc3cc2o1 . Reported TGI?
Ans. > 100 µM

---

Please provide measured TGI for the entries that follow.
system: EKVX; test: Growth inhibition of human EKVX cells; format: functional; details: read-out: Log TGI (converted)

Sample answers from the record:
CCCc1cc(=O)c2c(OC)c3c(OC)cc(OC)cc3cc2o1    > 100 µM
COc1cc(O)cc2cc3oc(C)cc(=O)c3c(OC)c12    > 100 µM

Okay, now this compound:
Qu. Could you share which TGI value was measured for COc1cc(O)cc2cc3oc(C)cc(=O)c3c(O)c12 ?
Ans. > 100 µM

---

system: SF-295; assay: Growth inhibition of human SF295 cells; assay type: functional
readout label: LC50

Below, each entry is followed by its recorded LC50 result.
COc1cc(O)cc2cc3oc(C)cc(=O)c3c(O)c12    > 100 µM
CCCc1cc(=O)c2c(OC)c3c(OC)cc(O)c(Oc4c(O)cc(OC)c5c(OC)c6c(=O)cc(CCC)oc6cc45)c3cc2o1    50.1 µM
CCCc1cc(=O)c2c(O)c3c(OC)cc(O)cc3cc2o1    > 100 µM

Here is another compound to look at.
Qu. Identify the measured LC50 of CCCc1cc(=O)c2c(OC)c3c(OC)cc(OC)cc3cc2o1 for SF-295.
Ans. > 100 µM
